The measured values listed here are drawn from patent US20250243171A1.

Quick list: pEC50 per entry.
# system: Ba/F3 stable cells (Homo sapiens, UniProt P00533, DUP767-769, cells depend on it)
# Construct: EC50 Ba/F3-EGFR V769-D770insASV; other: Ba/F3-EGFR V769-D770insASV cells, 72 h, CCK-8
# Sequence (P00533 with tags, fused parts or gaps DUP767-769): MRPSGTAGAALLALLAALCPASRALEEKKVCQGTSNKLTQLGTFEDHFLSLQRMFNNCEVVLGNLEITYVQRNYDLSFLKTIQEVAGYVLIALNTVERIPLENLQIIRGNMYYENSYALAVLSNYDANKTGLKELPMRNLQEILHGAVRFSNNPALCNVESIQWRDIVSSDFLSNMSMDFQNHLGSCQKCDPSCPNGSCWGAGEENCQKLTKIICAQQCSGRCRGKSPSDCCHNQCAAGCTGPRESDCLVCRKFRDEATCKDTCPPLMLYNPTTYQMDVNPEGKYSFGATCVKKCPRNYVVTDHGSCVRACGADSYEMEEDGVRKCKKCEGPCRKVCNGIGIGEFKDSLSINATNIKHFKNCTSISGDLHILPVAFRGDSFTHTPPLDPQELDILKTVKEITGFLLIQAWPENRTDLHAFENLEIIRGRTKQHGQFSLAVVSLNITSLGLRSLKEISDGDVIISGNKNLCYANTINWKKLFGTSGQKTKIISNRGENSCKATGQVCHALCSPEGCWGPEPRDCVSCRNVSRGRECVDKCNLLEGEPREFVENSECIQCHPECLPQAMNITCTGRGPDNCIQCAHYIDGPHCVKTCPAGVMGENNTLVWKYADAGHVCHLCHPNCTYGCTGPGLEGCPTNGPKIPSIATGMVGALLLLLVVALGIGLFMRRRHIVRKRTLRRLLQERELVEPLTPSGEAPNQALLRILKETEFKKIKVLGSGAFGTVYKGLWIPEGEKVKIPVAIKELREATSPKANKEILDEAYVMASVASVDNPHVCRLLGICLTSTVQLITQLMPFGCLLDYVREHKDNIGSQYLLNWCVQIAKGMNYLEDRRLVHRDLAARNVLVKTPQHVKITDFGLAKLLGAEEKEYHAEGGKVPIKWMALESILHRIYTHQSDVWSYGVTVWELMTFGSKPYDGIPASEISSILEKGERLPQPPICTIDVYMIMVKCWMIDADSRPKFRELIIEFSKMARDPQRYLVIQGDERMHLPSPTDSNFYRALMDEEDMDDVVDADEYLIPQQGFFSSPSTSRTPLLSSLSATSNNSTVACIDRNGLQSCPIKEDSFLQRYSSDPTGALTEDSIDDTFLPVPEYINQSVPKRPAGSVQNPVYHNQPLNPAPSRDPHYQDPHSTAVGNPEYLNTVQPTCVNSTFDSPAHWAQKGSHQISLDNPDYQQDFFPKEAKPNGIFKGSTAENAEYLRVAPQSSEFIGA
# protocol-notes: EC50 assay: Ba/F3 stable cell proliferation (CCK-8, 72 h)
# test-settings: Ba/F3-EGFR V769-D770insASV cells
pEC50: −log10 of the molar value.

**Q:** Please look up its pEC50: C=CC(=O)N1CCC(Oc2cc3c(Nc4nccc5ccccc45)ncnc3cc2OC)CC1
**A:** 6.00 to 6.70

**Q:** Please look up its pEC50: COc1cc2ncnc(Nc3ccc(Cl)c(Cl)c3F)c2cc1C1=CCCN(C#N)C1
**A:** < 6.00

**Q:** Please look up its pEC50: C=CC(=O)N1CCC(Oc2cc3c(Nc4cccc5cccnc45)ncnc3cc2OC)CC1
**A:** ≥ 6.70

**Q:** Please look up its pEC50: C=CC(=O)N1CCC(Oc2cc3c(NCc4cccc(C#N)c4)ncnc3cc2OC)CC1
**A:** < 6.00

**Q:** Please look up its pEC50: C=CS(=O)(=O)N1CCC=C(c2ccc3ncnc(Nc4ccc(Cl)c(Cl)c4F)c3c2)C1
**A:** ≥ 6.70
